Values from patent US8808715B1

# Tested on: rapidly dividing keratinocytes
# Experiment Notes: Assay of DNA synthesis ([3H]thymidine incorporation) in rapidly dividing keratinocytes
# Format: cell-based
# Conditions: 24 hours, control (25 μM Ca2+) medium
Measured Parameter: effect on DNA synthesis ([3H]thymidine incorporation into DNA)

smiles_structure=OC[C@@H](O)[C@@H](O)[C@H](O)[C@@H](O)CO reading="no significant effect"
smiles_structure=OC[C@@H](O)[C@H](O)[C@@H](O)CO reading="no significant effect"

###

# Test system: slowly dividing keratinocytes
# Experiment Notes: Assay of DNA synthesis ([3H]thymidine incorporation) in slowly proliferating keratinocytes
# Type: cell-based, mouse
# Conditions: liposomes, 24 hours, keratinocytes with reduced proliferation
Measured Parameter: effect on DNA synthesis ([3H]thymidine incorporation into DNA)

compound="CCCCCC(=O)OCC(COP(=O)(O)OCC(O)CO)OC(=O)CCCCC (stereo not shown)" reading="only mildly stimulatory"
compound="CCCCC/C=C\\C/C=C\\C/C=C\\C/C=C\\CCCC(=O)O[C@H](COC(=O)CCCCCCCCCCCCCCC)COP(=O)(O)OCC(O)CO (stereo partly shown)" reading="only mildly stimulatory"
compound="CCCCCCCC/C=C\\CCCCCCCC(=O)O[C@H](COC(=O)CCCCCCCCCCCCCCC)COP(=O)(O)OCC(O)CO (stereo partly shown)" reading="only mildly stimulatory"
